Experiment: molar heat capacity at constant pressure
Settings: 313.65 K; 101.33 kPa; Liquid; Small sample (50 mg) DSC
Measurement Label: molar heat capacity at constant pressure (J/K/mol)

INSERT INTO assay_data (compound, measurement_label, unit_text, experimental_value) VALUES
  ('BrCCCCCCCCCCCBr', 'molar heat capacity at constant pressure', 'J/K/mol', 402.57),
  ('BrCCCCCCCCCCCCBr', 'molar heat capacity at constant pressure', 'J/K/mol', 434.17),
  ('BrCCCCCCCCCBr', 'molar heat capacity at constant pressure', 'J/K/mol', 341.83),
  ('BrCCCCCCCCBr', 'molar heat capacity at constant pressure', 'J/K/mol', 312.39);
